Assign raw competing-Ab binding signal to each entry below.
- Assayed target: T1, human Sdc2 (human, UniProt P34741 19-144, limits assumed)
- T1 construct: Antigen of the Octet tandem binning, loaded on biosensors at 100 nM; also called huSdc2; hSdc2
- T1 sequence (P34741 19-144 limits assumed): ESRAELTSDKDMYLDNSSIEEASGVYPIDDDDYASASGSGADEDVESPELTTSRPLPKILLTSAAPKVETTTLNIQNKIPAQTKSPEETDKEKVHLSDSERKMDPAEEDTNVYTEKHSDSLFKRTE
- Assay details: Octet tandem binning; saturating Ab f6 19844-R3-P3-E09
Keep it simple and answer with nothing but the number.

// lookup raw competing-Ab binding signal for 8-G17-A (antibody, V domains shown, PentaMice hybridoma clone, made recombinantly in CHO cells) VH: EVQLVESGGGLVKPGGSLKLSCEASGITFSNYVMSWVRQTPEKRLEWVATISDGGSYTYYPDNLKGRFTISRDNAKNNLYLQMSHLKSEDTAMYYCVRDRYDYDGRVYAMDYWGQGTSVTVSS VL: DVVMTQTPLSLPVSLGDQASISCRSSQSLVHSNGNTYLHWYLQKPGQSPKLLIYKVSNRFSGVPDRFSGSGSGTDFTLKITRVEAEDLGVYFCSQSTHVPWTFGGGTKLEIKR
0.761

Item: R4M-P3-E06 (antibody, human IgG1, kappa, V domains shown, human IgG1 kappa from the phage campaign) VH: EVQLVESGGGVVQPGGSLRLSCAASGFTFSNYGMHWVRQAPGKGLEWVATISYDGTKKYYPDSVRGRFTISRDNSENMLYLQMDSLRLEDTAVIYCAKDLVSGSRYGFAFDSWGPGTLVTVSS VL: DIVMTQSPLSLPVTLGQPASISCRSSQSLVHSDGNTYLNWFQQRPGQSPRRLIYKVSNRDSGVPDRFSGTGSGTDFTLKISRVEADDVGVYYCMQGTHWPPIFGQGTRLEIKR
0.025

Item: R4M-P3-A12 (antibody, human IgG1, kappa, V domains shown) VH: EVQLVESGGGVVQPGGSLRLSCAASGFTFSDHYMSWIRQAPGKGLEWVSYLSGSGTSIYYADSVKGRFTISRDNAKKSLYLQMNSLRAEDTAVYYCARVGPAAGNAFDIWGQGTMVTVSS VL: QSVLTQPPSASGTPGQRVTISCSGSSSNIGSNYVYWYQQLPGTAPKLLIYRNNQRPSGVPDRFSGSKSGTSASLAITGLQAEDEADYYCQSYDSSLSGVVFGGGTKLTVLR
-0.0526

These entries and their values trace back to patent US20250282885A1.
